# key: entry, value: EC50
Tested on: stable HCV 2a JFH-1 Rluc replicon cells (L31 present in NS5A)
ASSAY_TEXT: Renilla luciferase HCV replicon reporter assay, genotype 2a JFH-1
Format: cell-based
CONDITION_PARAMETERS: Hepatitis C virus, read-out: 2a JFH (nM), genotype 2a JFH-1 replicon (L31 in NS5A), stable cells
Enter your answer as a number in nM; do not include the unit.

CC[C@H](C)[C@H](NC(=O)OC)C(=O)N1CCC[C@H]1c1ncc(-c2ccc3c(c2)COc2cc4c(ccc5nc([C@@H]6CCCN6C(=O)[C@@H](NC(=O)OC)[C@@H](C)CC)[nH]c54)cc2-3)[nH]1
0.012

Fill blank: measured EC50 of the molecule CC[C@H]1CC[C@@H](c2ncc(-c3ccc4c(c3)COc3cc5c(ccc6nc([C@@H]7CC[C@H](CC)N7C(=O)[C@@H](NC(=O)OC)C7CCOCC7)[nH]c65)cc3-4)[nH]2)N1C(=O)[C@@H](NC(=O)OC)C(C)C is ____.
0.034

Fill blank: measured EC50 of the molecule CC[C@H]1CC[C@@H](c2nc3ccc4cc5c(cc4c3[nH]2)OCc2cc(-c3cnc([C@@H]4CC[C@H](C)N4C(=O)[C@@H](NC(=O)OC)C(C)C)[nH]3)ccc2-5)N1C(=O)[C@H](NC(=O)OC)c1ccccc1 is ____.
0.024

Fill blank: measured EC50 of the molecule CC[C@H]1C[C@@H](c2nc3ccc4cc5c(cc4c3[nH]2)OCc2cc(-c3cnc([C@@H]4CC[C@H](C)N4C(=O)[C@@H](NC(=O)OC)C(C)C)[nH]3)ccc2-5)N(C(=O)[C@@H](NC(=O)OC)[C@@H](C)OC)C1 is ____.
0.014

----------
Tested on: NS5A chimeric genotype 2a JFH-1 replicon with genotype 2b MD2b-1 strain NS5A gene (M31 present)
ASSAY_TEXT: Replicon assay, genotype 2b NS5A chimera
Type: cell-based, HCV
CONDITION_PARAMETERS: Hepatitis C virus, read-out: 2b (s) (nM), genotype 2b MD2b-1 NS5A chimeric replicon (M31), stably replicating replicon cells (s)
ASSAY_READOUT: EC50 (nM)
Enter your answer as a number in nM; do not include the unit.

COC(=O)N[C@H](C(=O)N1[C@@H](C)CC[C@H]1c1ncc(-c2ccc3c(c2)COc2cc4c(ccc5nc([C@@H]6C[C@H](C)CN6C(=O)[C@@H](NC(=O)OC)[C@H](C)OC)[nH]c54)cc2-3)[nH]1)C(C)C [FU]
0.347

In the following, a different compound is considered.
Fill blank: measured EC50 of the compound CC[C@H]1CC[C@@H](c2ncc(-c3ccc4c(c3)COc3cc5c(ccc6nc([C@@H]7CC[C@H](C)N7C(=O)[C@@H](NC(=O)OC)[C@@H](C)OC)[nH]c65)cc3-4)[nH]2)N1C(=O)[C@H](C)NC(=O)OC [GP] is ____.
2.33

----------
Test system: NS5A chimeric genotype 1b Con1 replicon with genotype 3a S52 strain NS5A gene
ASSAY_TEXT: Replicon assay, genotype 3a NS5A chimera
Format: cell-based, HCV
CONDITION_PARAMETERS: Hepatitis C virus, read-out: 3a (s) (nM), genotype 3a NS5A chimeric replicon, stable replicon cells (s)
# key: entry, value: EC50
Enter your answer as a number in nM; do not include the unit.

CC[C@H]1CC[C@@H](c2ncc(-c3ccc4c(c3)COc3cc5c(ccc6nc([C@@H]7C[C@H](C)CN7C(=O)[C@@H](NC(=O)OC)C7CCOCC7)[nH]c65)cc3-4)[nH]2)N1C(=O)[C@@H](NC(=O)OC)C(C)C [HZ]
0.14
CC[C@H](C)[C@H](NC(=O)OC)C(=O)N1C[C@@H](C)C[C@H]1c1nc2ccc3cc4c(cc3c2[nH]1)OCc1cc(-c2cnc([C@@H]3CC[C@H](C)N3C(=O)[C@@H](NC(=O)OC)C(C)C)[nH]2)ccc1-4 [GR]
0.159
COC(=O)N[C@H](C(=O)N1[C@@H](C)CC[C@H]1c1nc2ccc3cc4c(cc3c2[nH]1)OCc1cc(-c2cnc([C@@H]3C[C@@H]5CCC[C@@H]5N3C(=O)[C@@H](NC(=O)OC)C3CCOCC3)[nH]2)ccc1-4)C(C)C [IB]
0.077
CC[C@H]1CC[C@@H](c2ncc(-c3ccc4c(c3)COc3cc5c(ccc6nc([C@@H]7CC[C@H](C)N7C(=O)[C@@H](NC(=O)OC)[C@@H](C)OC)[nH]c65)cc3-4)[nH]2)N1C(=O)[C@@H](NC(=O)OC)C(C)C [EQ]
0.475

Fill blank: measured EC50 of the compound CC[C@H]1C[C@@H](c2ncc(-c3ccc4c(c3)COc3cc5c(ccc6nc([C@@H]7CC[C@H](C)N7C(=O)[C@@H](NC(=O)OC)C(C)C)[nH]c65)cc3-4)[nH]2)N(C(=O)[C@@H](NC(=O)OC)[C@@H](C)OC)C1 [GX] is ____.
0.106

Fill blank: measured EC50 of the compound CC[C@H]1CC[C@@H](c2nc3ccc4cc5c(cc4c3[nH]2)OCc2cc(-c3cnc([C@@H]4C[C@@H]6CCC[C@@H]6N4C(=O)[C@@H](NC(=O)OC)C(C)C)[nH]3)ccc2-5)N1C(=O)[C@@H](NC(=O)OC)C1CCOCC1 [IU] is ____.
0.098
